Entries and their measured melting point follow.

# compound, melting point
data = [
    ("CC(c1ccccc1-c1ccccc1)N1C(=O)c2cnc3[nH]ncc3c2C1=O (stereo not drawn) [Example 144]", "161 to 163 °C"),
    ("O=C1c2cnc3[nH]ncc3c2C(=O)N1CCC1CCNCC1 [Example 70]", "> 300 °C"),
    ("COc1ccc(OC)c(-c2ccccc2CN2C(=O)c3cnc4[nH]ncc4c3C2=O)c1 [Example 143]", "208 to 211 °C"),
    ("N#Cc1ccc(CN2C(=O)c3cnc4[nH]ncc4c3C2=O)cc1 [Example 41]", "293 to 295 °C"),
    ("COc1cccc(-c2ccccc2CN2C(=O)c3cnc4[nH]ncc4c3C2=O)c1 [Example 147]", "99 to 100 °C"),
    ("N#Cc1cccc(CN2C(=O)c3cnc4[nH]nc(Br)c4c3C2=O)c1 [Example 142]", "283 to 285 °C"),
    ("O=C1c2cnc3[nH]ncc3c2C(=O)N1Cc1ccccc1-c1cccc(F)c1F [Example 141]", "93 to 100 °C"),
    ("O=C1c2cnc3[nH]nc(-c4ccccc4)c3c2C(=O)N1Cc1c(F)cccc1Cl [Example 169]", "224 to 228 °C"),
    ("O=C1c2cnc3[nH]ncc3c2C(=O)N1CC1CCNCC1 [Example 57]", "> 300 °C"),
    ("O=C1c2cnc3[nH]ncc3c2C(=O)N1Cc1ccccc1-c1ccc(F)cc1F [Example 145]", "199 to 200 °C"),
    ("CC(C)(C)OC(=O)N1CCC(CN2C(=O)c3cnc4[nH]ncc4c3C2=O)CC1 [Example 140]", "134 to 137 °C"),
    ("O=C1c2cnc3[nH]ncc3c2C(=O)N1CCc1ccccc1 [Example 2]", "237 to 239 °C"),
    ("Cc1ccc(-c2ccccc2CN2C(=O)c3cnc4[nH]ncc4c3C2=O)cc1F [Example 146]", "193 to 198 °C"),
    ("N#Cc1ccccc1CN1C(=O)c2cnc3[nH]ncc3c2C1=O [Example 108]", "285 to 287 °C"),
    ("O=C1NC(=O)c2c1cnc1[nH]ncc21 [Example 1]", "285 to 300 °C"),
]
